- Target Or Test System: CD276, Q5ZPR3
- Sequence (Q5ZPR3 whole entry): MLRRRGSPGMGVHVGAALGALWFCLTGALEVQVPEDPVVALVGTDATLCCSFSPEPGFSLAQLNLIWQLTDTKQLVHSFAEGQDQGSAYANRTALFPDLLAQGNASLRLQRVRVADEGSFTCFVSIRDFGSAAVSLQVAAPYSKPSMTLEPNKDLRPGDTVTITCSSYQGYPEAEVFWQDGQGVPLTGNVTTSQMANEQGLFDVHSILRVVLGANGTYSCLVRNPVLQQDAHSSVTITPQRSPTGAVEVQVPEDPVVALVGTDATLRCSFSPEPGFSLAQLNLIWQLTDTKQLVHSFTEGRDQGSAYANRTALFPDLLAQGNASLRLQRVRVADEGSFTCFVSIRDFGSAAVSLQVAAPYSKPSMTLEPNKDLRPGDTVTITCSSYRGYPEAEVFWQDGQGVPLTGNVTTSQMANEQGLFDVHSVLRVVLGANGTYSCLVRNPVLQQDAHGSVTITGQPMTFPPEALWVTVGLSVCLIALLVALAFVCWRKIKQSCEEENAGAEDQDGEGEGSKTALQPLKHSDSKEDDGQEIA

| Binder | binding in a display sort |
| --- | --- |
| design_488_244881a1-ba0c-4c08-ad9c-1f64cf93580a_165_dldesign_0_cycle1_af2pred (protein) MTPADQLIELARAIVEQAKASDPETAAVNAAGAEAAAGALRNYAAANPETGPKAEAAAKEAEAAAKAIKAAVAAAK | not found (inactive) |
| design_616_e8336982-fa4d-4d7c-b06f-9007953e1994_1883_dldesign_0_cycle1_af2pred (protein) NAEVAKLLGQIIDELQAAQAAAAAGDLKAAAKEAQKAAEAAGKIGDPEKGKELAAGAKADPSKAVEYARQALSIASAAAIKIAA | not found (inactive) |
| design_615_ab801fab-270b-4f6a-b2b5-83c165df418c_1187_dldesign_0_cycle1_af2pred (protein) AAAEEVARRGASALAAGQNLIEMAKAASPEAAAVATAALAQAKALLAQGTPEAAEQAQQVINDAMAQVSKIMIAAA | not found (inactive) |
| design_612_bdadb936-3f14-48ad-830f-718e38d81c30_271_dldesign_0_cycle1_af2pred (protein) AARAEALAAEGEALIEQALSDATLSEEERKALLNQAAHKFVAAAGALVADRGPAAQAEITALLSKAVEAKALAEA | not found (inactive) |
| design_620_fbd04095-bef7-46a9-992d-f2cb8915922f_846_dldesign_0_cycle1_af2pred (protein) AADALAGAKAALNTIKAAETNAKKLDAAGAEAQYKLAKVALESAKVHAAKLGEEGKKIAEEAKKALAATKAVAEAKKAA | not found (inactive) |
| design_616_e8336982-fa4d-4d7c-b06f-9007953e1994_2198_dldesign_0_cycle1_af2pred (protein) MEEERRKKAEELLEKATKELKAMQAQAEALAKAGDIGAATQLVVDAARYGAEVTREAEKIDPEVAEKMAEVTNKIIAAALKALTAYAA | not found (inactive) |
| design_613_5efed0bc-64ba-423b-b3f9-a246574e49bb_1690_dldesign_0_cycle1_af2pred (protein) AAALEVGRRTLAALERTAEAAIAAARATTPEEAAREMGRARAAAEQARLIGEGVPELAPRAEALAERVAAAAAALEAA | not found (inactive) |
| design_622_fcc41892-afde-4fb9-b6e8-b664fffd6a75_2272_dldesign_0_cycle1_af2pred (protein) DEAKKQLEIATKMAEYALKQAEAALKDGRTAGTVVPAQVKTLKLLAESAEATGLEEAKKKAEEFKKKAKELEKAAEKAK | not found (inactive) |
| design_619_5728adc2-0aea-404f-92dd-a4575c53f550_1976_dldesign_0_cycle1_af2pred (protein) SPALLAARKAITETAAATINALTDPAAANLVGRAMIQGLQLAQQGEAAGAHAAAAVAALALVEAAAAAARALDAAAA | not found (inactive) |
| design_622_fcc41892-afde-4fb9-b6e8-b664fffd6a75_169_dldesign_0_cycle1_af2pred (protein) AQRETIKNGILAMMRALALALDDPEKREEMIEALAGIAAQLPKEEGVRVIKEAAKEVAAKYPEKAEEILEAGERAVELAKKLS | not found (inactive) |
| design_622_fcc41892-afde-4fb9-b6e8-b664fffd6a75_877_dldesign_0_cycle1_af2pred (protein) SEEYRRRAEELERRAREAAEEARRAERAEELRRYAEELRRIANEAMRLAMEAAQAGGDPEVVVRAVEVAVEALRAAGEAYRRAEELE | not found (inactive) |
| design_611_394c5ea9-a0d3-47c4-9d48-89ba6a28fdd0_908_dldesign_0_cycle1_af2pred (protein) AAAAARAAAVAAAEAAAAEAIKELKAAAEEAKTATPEEAAKLMNEMLAKASRQALAMQASGDPAAAAAGARLIAAAVEYAKEIDEAIR | not found (inactive) |
| design_614_ef6b398b-10cb-4a07-8087-96dafb4f9c83_806_dldesign_0_cycle1_af2pred (protein) AAAQLAAENIALAKAIFEEVRKEALKAIEALKKAKEAASDPELAAKYLEKAKEALKKAEELAAKGSEGIALLARNYVRSLLASTA | not found (inactive) |
| design_486_d4f32670-1303-4d79-8413-1b14cb3eff50_788_dldesign_0_cycle1_af2pred (protein) MREEAERVRRRAEEVEELAAKASPAVAAQVRARARAARTFAEAALRSPDPELAAQAVAAAEANVEAAEQLLAADA | not found (inactive) |
| design_618_d4ffd631-0ea2-432e-ba0f-bd3d6297b2a0_170_dldesign_0_cycle1_af2pred (protein) AAAAAAADAEAAALAKGFVEEAKKKIEALLKAGAPEEELLAEASRVAAKAIRTFAALGWNGSHAVAAVKAITEEAKKAIEKLRA | not found (inactive) |
| design_618_d4ffd631-0ea2-432e-ba0f-bd3d6297b2a0_955_dldesign_0_cycle1_af2pred (protein) AAASEIMAKFAAGVAKNVAAVLKEDPEKGIEVGKKLAEIILAADPQAGAKLAQAFAEYVKKYAPLIPADKKAAAEAYFNALAEKGA | not found (inactive) |
| design_623_6e2e8b1f-5d9a-4413-9869-27a184816b12_1704_dldesign_0_cycle1_af2pred (protein) MEEALTEAFRAVAEMNRLAEEARKANPEAAEKAEEARREMSRLAIEAARSDAETAAELAKKIKEILEKTKKVVEELA | not found (inactive) |
| design_488_244881a1-ba0c-4c08-ad9c-1f64cf93580a_782_dldesign_0_cycle1_af2pred (protein) AAAQAARAYAVLKAHADAAAKRAAELAAEGAEGARAGAQLLAVVSDAAAGAAKAFPEYAAELNALAAAAAAAAAAAAAAAAAAEAAA | not found (inactive) |
| design_623_6e2e8b1f-5d9a-4413-9869-27a184816b12_1349_dldesign_0_cycle1_af2pred (protein) DRLREIAAALAKEVAEATGADPATTEKLAELLAAVLEANQQGPEAFAAAYSKLVDFTVSTGSDALLAKAGAAVSRGLRALG | not found (inactive) |

Source listed as paper PMC13494018.
